molecular target: KDM5B (Homo sapiens, UniProt Q9UGL1)
Sequence (Q9UGL1 whole entry, species assumed): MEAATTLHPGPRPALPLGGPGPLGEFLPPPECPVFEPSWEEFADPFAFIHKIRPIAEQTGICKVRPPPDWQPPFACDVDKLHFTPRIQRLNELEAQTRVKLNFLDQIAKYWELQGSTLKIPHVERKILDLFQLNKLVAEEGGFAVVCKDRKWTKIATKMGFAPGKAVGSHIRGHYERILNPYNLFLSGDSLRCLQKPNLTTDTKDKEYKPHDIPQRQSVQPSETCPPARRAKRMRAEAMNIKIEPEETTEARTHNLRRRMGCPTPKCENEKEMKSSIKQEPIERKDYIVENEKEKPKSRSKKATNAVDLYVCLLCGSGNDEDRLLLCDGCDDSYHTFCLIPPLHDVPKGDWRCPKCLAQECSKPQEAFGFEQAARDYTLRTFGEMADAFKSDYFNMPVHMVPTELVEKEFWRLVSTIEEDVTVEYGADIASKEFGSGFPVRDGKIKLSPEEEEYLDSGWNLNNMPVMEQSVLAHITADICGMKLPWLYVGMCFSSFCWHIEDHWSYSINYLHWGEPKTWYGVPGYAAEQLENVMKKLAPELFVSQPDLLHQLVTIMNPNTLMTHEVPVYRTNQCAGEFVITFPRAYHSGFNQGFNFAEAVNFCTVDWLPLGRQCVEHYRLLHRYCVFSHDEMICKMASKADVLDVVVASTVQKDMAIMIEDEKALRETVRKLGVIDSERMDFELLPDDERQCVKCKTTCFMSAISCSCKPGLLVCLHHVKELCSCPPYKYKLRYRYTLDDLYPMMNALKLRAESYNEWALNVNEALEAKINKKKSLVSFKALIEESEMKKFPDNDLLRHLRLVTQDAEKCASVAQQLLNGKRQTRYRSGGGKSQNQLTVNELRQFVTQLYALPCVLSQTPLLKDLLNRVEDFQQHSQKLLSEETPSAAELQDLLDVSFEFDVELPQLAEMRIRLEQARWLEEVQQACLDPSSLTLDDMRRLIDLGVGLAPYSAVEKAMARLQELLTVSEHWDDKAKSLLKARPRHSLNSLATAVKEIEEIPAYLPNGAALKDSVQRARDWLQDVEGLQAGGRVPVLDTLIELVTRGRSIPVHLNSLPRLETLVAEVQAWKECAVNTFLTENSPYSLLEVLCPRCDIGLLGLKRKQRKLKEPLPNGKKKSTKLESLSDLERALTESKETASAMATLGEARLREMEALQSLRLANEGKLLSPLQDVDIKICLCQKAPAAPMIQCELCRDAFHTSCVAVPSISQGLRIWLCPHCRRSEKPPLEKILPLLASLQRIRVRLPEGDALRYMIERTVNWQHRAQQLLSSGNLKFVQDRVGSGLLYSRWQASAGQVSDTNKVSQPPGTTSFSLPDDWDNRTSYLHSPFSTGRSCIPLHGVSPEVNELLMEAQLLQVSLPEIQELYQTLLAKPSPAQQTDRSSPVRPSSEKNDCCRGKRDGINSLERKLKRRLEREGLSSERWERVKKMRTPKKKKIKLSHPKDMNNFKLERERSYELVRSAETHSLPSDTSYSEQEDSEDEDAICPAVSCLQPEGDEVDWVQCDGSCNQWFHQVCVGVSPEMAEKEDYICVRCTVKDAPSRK
Quantity: IC50 (µM)
Answer format: numeric, µM implied, no suffix.

Ask: Requested field: IC50. Item: C=CC(=O)Nc1cc(N=[N+]=[N-])cc(C(=O)NCC(=O)O)c1O [compound 7]
Result: 13.6
